Target: Glucocorticoid receptor (Homo sapiens)
Sequence (P04150 whole entry): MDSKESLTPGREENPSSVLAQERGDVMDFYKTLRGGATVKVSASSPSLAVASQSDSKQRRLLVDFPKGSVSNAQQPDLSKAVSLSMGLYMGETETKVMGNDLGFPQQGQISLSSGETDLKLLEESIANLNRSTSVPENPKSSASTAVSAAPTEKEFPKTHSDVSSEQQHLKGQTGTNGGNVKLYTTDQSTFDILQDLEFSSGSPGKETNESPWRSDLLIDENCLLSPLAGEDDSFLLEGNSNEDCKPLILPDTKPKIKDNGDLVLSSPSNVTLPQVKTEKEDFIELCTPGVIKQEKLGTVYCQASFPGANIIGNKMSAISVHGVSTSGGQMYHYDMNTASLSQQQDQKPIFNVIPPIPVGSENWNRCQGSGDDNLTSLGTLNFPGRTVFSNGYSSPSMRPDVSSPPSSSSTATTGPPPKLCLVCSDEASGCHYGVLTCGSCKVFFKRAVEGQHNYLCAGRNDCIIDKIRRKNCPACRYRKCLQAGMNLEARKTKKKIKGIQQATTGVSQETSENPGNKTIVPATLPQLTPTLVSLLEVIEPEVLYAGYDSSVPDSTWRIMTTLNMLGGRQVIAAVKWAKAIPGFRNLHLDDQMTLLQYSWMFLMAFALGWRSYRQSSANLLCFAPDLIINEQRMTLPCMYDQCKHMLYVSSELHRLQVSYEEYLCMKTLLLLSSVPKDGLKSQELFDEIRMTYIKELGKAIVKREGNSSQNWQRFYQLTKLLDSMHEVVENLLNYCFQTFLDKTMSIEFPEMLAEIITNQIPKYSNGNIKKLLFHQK
Test: Transrepression activity at glucocorticoid receptor alpha in phorbol myristate acetate-stimulated human A549 cells assessed as inhibition of AP1 response element by luciferase reporter gene assay
Type: cell-based
pEC50: −log10 of the molar value.
experimental.endpoint: pEC50

Previously resolved entries follow.
Query :: Lab note: record pEC50 of Cc1ccc(-c2ccc3c(n2)Oc2ccccc2[C@@H]3C(C)(C)C(=O)Nc2nncs2)cc1 tested on Glucocorticoid receptor (Homo sapiens).
Result :: 7.33

Query :: Report pEC50 on Glucocorticoid receptor (Homo sapiens) for this entry: CN(C)C(=O)c1ccc(-c2ccc3c(c2)Oc2ccccc2C3C(C)(C)C(=O)Nc2nncs2)cc1 (racemic)
Result :: 7.11

Query :: Lab note: record pEC50 of CCc1ccc(-c2ccc3c(n2)Oc2ccccc2[C@H]3C(C)(C)C(=O)Nc2nncs2)cc1 tested on Glucocorticoid receptor (Homo sapiens).
Result :: 7.75

Query :: Report pEC50 under test system Glucocorticoid receptor (Homo sapiens) for CC(=O)c1ccc(-c2ccc3c(n2)Oc2ccccc2[C@@H]3C(C)(C)C(=O)Nc2nncs2)cc1F .
Result :: 7.38

Query :: Provide measured pEC50 on Glucocorticoid receptor (Homo sapiens) for CC(C)(C(=O)Nc1nncs1)[C@@H]1c2ccccc2Oc2nc(-c3ccc(O)cc3)ccc21 please.
Result :: 7.04

Query :: System Glucocorticoid receptor (Homo sapiens). Read-out pEC50. Item CN(C)c1ccc(-c2ccc3c(n2)Oc2ccccc2[C@@H]3C(C)(C)C(=O)Nc2nncs2)cc1 . Report value.
Result :: 7.87

P: CC(C)(C(=O)Nc1nncs1)[C@H]1c2ccccc2Oc2nc(-c3ccc(C(=O)N4CCOCC4)c(F)c3)ccc21
Q: CN(C)C(=O)c1ccc(-c2ccc3c(c2)Oc2ccccc2C3C(C)(C)C(=O)Nc2nncs2)nc1 (racemic)
R: CN(C)C(=O)c1cnc(-c2ccc3c(c2)Oc2ccccc2C3C(C)(C)C(=O)Nc2nncs2)nc1 (racemic)
S: CC(C)(C(=O)Nc1nncs1)[C@H]1c2ccccc2Oc2nc(-c3ccc(C(=O)O)cc3)ccc21
T: CCS(=O)(=O)c1ccc(-c2ccc3c(n2)Oc2ccccc2[C@@H]3C(C)(C)C(=O)Nc2nncs2)cc1
Query :: Hello, I need these entries ordered by pEC50, highest reading first. Thanks! Record the ranking as a list of labels in the requested order.
Result :: P, T, Q, R, S
(P: 7.93, T: 7.54, Q: 7.24, R: 6.74, S: 6.26)

1: CNC(=O)c1ccc(-c2ccc3c(n2)Oc2ccccc2[C@@H]3C(C)(C)C(=O)Nc2nncs2)cc1
2: CCN(C)C(=O)c1ccc(-c2ccc3c(n2)Oc2ccccc2[C@@H]3C(C)(C)C(=O)Nc2nncs2)cc1F
Query :: Just curious, which one has the larger pEC50 reading, 1 or 2 ? Refer to your chosen item by its label in the answer.
Result :: 2
(2: 7.75, 1: 6.78)

A: CCN(C)C(=O)c1ccc(-c2ccc3c(n2)Oc2ccccc2[C@H]3C(C)(C)C(=O)Nc2nncs2)cc1Cl
B: CC(C)Oc1ccc(-c2ccc3c(n2)Oc2ccccc2[C@H]3C(C)(C)C(=O)Nc2nncs2)cc1
Query :: pEC50 comparison. Which is larger, A or B ? Write the label of whichever entry you select.
Result :: B
(B: 7.74, A: 6.91)

a: Cc1ccccc1-c1ccc2c(n1)Oc1ccccc1[C@@H]2C(C)(C)C(=O)Nc1nncs1
b: CCCc1ccc(-c2ccc3c(n2)Oc2ccccc2[C@H]3C(C)(C)C(=O)Nc2nncs2)cc1
c: CNC(=O)c1ccc(-c2ccc3c(n2)Oc2ccccc2[C@@H]3C(C)(C)C(=O)Nc2nncs2)cc1F
Query :: Rank ascending by pEC50. Output spec: labels arranged per the requested ranking.
Result :: a, c, b
